The compounds listed here are annotated with their IC50.
Biological target: Kv1.5 (Homo sapiens)
Sequence (P22460 whole entry): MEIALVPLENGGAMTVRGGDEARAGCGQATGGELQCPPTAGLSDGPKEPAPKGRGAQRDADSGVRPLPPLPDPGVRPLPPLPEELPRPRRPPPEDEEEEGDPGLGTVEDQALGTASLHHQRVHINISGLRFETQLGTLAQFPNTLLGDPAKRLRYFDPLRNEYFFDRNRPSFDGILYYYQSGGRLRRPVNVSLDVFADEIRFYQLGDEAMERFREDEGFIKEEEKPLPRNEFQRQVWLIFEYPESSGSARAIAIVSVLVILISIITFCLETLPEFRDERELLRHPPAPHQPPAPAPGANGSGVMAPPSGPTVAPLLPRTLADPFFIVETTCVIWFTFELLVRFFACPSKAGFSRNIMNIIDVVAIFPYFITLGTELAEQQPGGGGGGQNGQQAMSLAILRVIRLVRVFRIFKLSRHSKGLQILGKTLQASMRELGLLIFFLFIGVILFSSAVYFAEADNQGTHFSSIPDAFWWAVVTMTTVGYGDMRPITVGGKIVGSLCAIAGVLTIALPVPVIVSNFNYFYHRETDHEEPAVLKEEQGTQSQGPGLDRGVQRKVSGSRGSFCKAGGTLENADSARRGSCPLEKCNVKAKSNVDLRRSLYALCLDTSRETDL
Experiment: Patch-clamp inhibition of cloned ion channel current in transfected HEK cells: Kv1.5
Conditions: steady-state current, -80 mV to +60 mV
Counter-ions that a name gives are not always drawn.
RECORDED METRIC: IC50 (µM)

Cc1cn2cccc(OCCCOCc3ccccc3)c2n1 [Compound 11, MONOHYDROCHLORIDE]
11
Cc1cn2ccc(C)c(OCCCc3ccccc3)c2n1 [Compound 18, MONOHYDROCHLORIDE]
3
Cc1cn2cccc(OCC3(c4ccccc4)CC3)c2n1 [Compound 13, MONOHYDROCHLORIDE]
0.7
Cc1cn2cccc(OCCC(c3ccccc3)c3ccccc3)c2n1 [Compound 12, MONOHYDROCHLORIDE]
0.6
Cc1nc2c(OCC3(c4ccccc4)CC3)cccn2c1CN(C)C [Compound 40, DIHYDROCHLORIDE]
23
